# Tested on: INSRR
# condition-notes: concentration: 1 μM, replicates: in singlicate; n = 1
Documented %Inh across a set of compounds
assay-metric: %Inh (%)

INSERT INTO assay_data (compound_structure, assay_metric, recorded_result) VALUES
  ('c1ccc(-c2ccnc3[nH]ccc23)cc1', '%Inh', 0),
  ('Cc1ccc(NC(=O)Nc2ccccc2)cc1-c1ccc(C(=O)Nc2ccncc2)cc1', '%Inh', 0),
  ('CC(=O)c1c(C)c2cnc(Nc3ccn(C)n3)nc2n(C2CCCC2)c1=O', '%Inh', 0),
  ('Cc1ccccc1Cn1ccn2c(=O)cc(N3CCOCC3)nc12', '%Inh', 0),
  ('COc1ccc2cc(-c3nc(-c4ccccc4C(C)C)[nH]c3-c3ccncc3)ccc2c1', '%Inh', 1);

---

# Test system: JAK3(JH1domain-catalytic);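 also: kd values determined as follow-up on hits from a single-replicate KINOMEscan panel screen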
pKd: −log10 of the molar value.
assay-metric: pKd

INSERT INTO measurements (compound_structure, system_tested, recorded_result) VALUES
  ('COc1cccc(C2=C(Nc3cc(Cl)c(O)c(Cl)c3)C(=O)NC2=O)c1', 'JAK3(JH1domain-catalytic)', 6.92);

---

# Tested on: SGK
# condition-notes: concentration: 1 μM, replicates: in singlicate; n = 1
assay-metric: %Inh

INSERT INTO measurements (compound, assay_metric, recorded_result) VALUES
  ('O=C1NC(=O)C(c2ccc(Cl)cc2)=C1Nc1ccc(O)cc1 [SB-340867]', '%Inh', '0%'),
  ('CC[C@@H]1CO[C@H](C(=O)Nc2ccccc2)CN1c1cc(-c2ccc3c(N)n[nH]c3c2)nc(NC)n1 [GSK2376236]', '%Inh', '19%'),
  ('FC(F)(F)c1ccccc1-c1cc(-c2c[nH]nc2-c2ccccn2)ccn1 [GW679396]', '%Inh', '0%'),
  ('Cc1ccc(NC(=O)Nc2ccc(Cl)c(C(F)(F)F)c2)cc1-c1ccc(C(=O)Nc2ccncc2)cc1 [GSK1398470]', '%Inh', '0%'),
  ('COc1cccc(NC(=O)Nc2ccc(C)c(-c3ccc(C(=O)Nc4ccncc4)cc3)c2)c1 [GSK1398474]', '%Inh', '0%'),
  ('CNc1nc(-c2ccc3c(N)n[nH]c3c2)cc(N2C[C@@H](C(=O)NC3CCCCC3)OC[C@H]2C)n1 [GSK2375584]', '%Inh', '0%'),
  ('COc1ccc2cc(-c3nc(-c4ccccc4C(C)C)[nH]c3-c3ccncc3)ccc2c1 [SB-660566]', '%Inh', '0%'),
  ('Cc1ccccc1-c1cc(-c2c[nH]nc2-c2ccccn2)ccn1 [GW680061]', '%Inh', '0%'),
  ('Cl.Cl.Cl.N#Cc1ccc(CCNc2nccc(-c3cccc(CN4CCNCC4)c3)n2)cc1 [GSK2137462]', '%Inh', '0%'),
  ('O=c1cc(N2CCOCC2)nc2n(Cc3ccccc3F)ccn12 [GSK2297428]', '%Inh', '0%'),
  ('COC(=O)c1cccc(NC(=O)NC2CCN(c3ccnc(Nc4ccc(OC)cc4)n3)C2)c1 (centres unmarked) [GSK1379746]', '%Inh', '9%'),
  ('Nc1ncnc2occ(-c3ccc4c(c3)CCN4C(=O)Cc3cc(F)ccc3F)c12 [GSK2645446]', '%Inh', '0%'),
  ('COC(=O)C(NC(=O)NC1CCN(c2ccnc(Nc3ccc(F)cc3)n2)C1)c1ccccc1 (centres unmarked) [GSK1379712]', '%Inh', '2%'),
  ('COc1cc2ncnc(Nc3cccc(Br)c3)c2cc1OC.Cl [GI230329]', '%Inh', '22%'),
  ('COC(=O)c1cccc(NC(=O)NC2CCN(c3ccnc(Nc4ccc(F)cc4)n3)C2)c1 (centres unmarked) [GSK1379725]', '%Inh', '0%'),
  ('Cc1c(Cn2c3ccccc3n3c(=O)cc(N4CCOCC4)nc23)cccc1C(F)(F)F [GSK2306394]', '%Inh', '15%'),
  ('CN1c2ccc(-c3ccc(C(N)=O)cc3)cc2-c2[nH]ncc2S1(=O)=O', '%Inh', '0%');
